# Tested on: MS2 coat protein
# assay text: apparent KD of MS2 coat protein; designed switch direction (-1 OFF switch, 1 ON switch): -1; higher = weaker reporter binding
# protocol conditions: input ligand: none
readout name: apparent KD of MS2 coat protein (nM)
# number only, unit nM dropped from output

Completed entries (count: 4):
sequence_string="GAGGUGUAAGGAUAUAGCUAUAGGCUAACCGGGACCCAUAGCUAGAAGGUACAUGAGGAUCACCCAUGUUUGCU [Eternabot (L1) Solution 99] (Eterna round: R97, puzzle: Exclusion 4)" readout_name="apparent KD of MS2 coat protein" recorded_measurement=22.6
sequence_string="GAGCCUAAUGUAGGAUAUCGAGGUCGGUGACGUCGAGAAGGACAUGAGGAUCACCCAUGUCGUAGCGGCGGGAACGCUGCUACG [first try -36 kcal] (Eterna round: R96, puzzle: Exclusion NG 1)" readout_name="apparent KD of MS2 coat protein" recorded_measurement=274
sequence_string="GAGUGAUGAGGAUAUACAUGAGGAUCACCCAUGUGCUUCAGCUAGGAGACUAGCAUUGGUAGAAGGCAUUACUC [Mod of lroppy 7 - Jieux - Exclusion 3] (Eterna round: R97, puzzle: Exclusion 3)" readout_name="apparent KD of MS2 coat protein" recorded_measurement=15.8
sequence_string="AAUAAUGAUAAGGAUAUCACUAGCUUCGGCUAGUGAGAAGGUAUCACAUGAGGAUCACCCAUGUGUUCCAAUAA [Ex6/6-A1] (Eterna round: R97, puzzle: Exclusion 6)" readout_name="apparent KD of MS2 coat protein" recorded_measurement=18

// switching to the query sequence
What does the record list as apparent KD of MS2 coat protein for GGUGAGCUAGGAUAUGCUUUGGGCUCGCUUUCCUUCGAUUUACUUGAGGAUCACCCAAGUAGAAGGAGCUUGCC [salish99_ex2_r4_035] (Eterna round: R97, puzzle: Exclusion 2) ?
12.9

---

# System: MS2 coat protein
# assay text: apparent KD of MS2 coat protein; higher = weaker reporter binding
# protocol conditions: Eterna round: R107; input ligand: arginine 13.2 mM
Please note: true applies when apparent KD of MS2 coat protein is 20 nM or greater, and false applies otherwise.

Previously resolved entries follow.
sequence_string=UGUAUGUGAUCUGAUACCAGUCCAACUGGUAAAGCAUGAGGAUCACCCAUGUAAAAUUGGGACCCUUGGCAGCAGAUCGCAUACU cat=true
sequence_string="ACAUGACAACAUGAGGAUCACCCAUGUCAUCGAGGACCGGUACGGCCGCCACUCGGUCAAUAUGAUACUUGUCAUGAACAUGAGG [Exclusion Tryptophan A 2]" cat=false
sequence_string="GGGUGGUAGGCGGCCGCCACUGAUUUUUAUUUAUAGAUGACAUGAGGAUCACCCAUGUUGAUAUGCAGGACCGGGCCUGUUGUUG [aaaP]" cat=false
sequence_string="UCAGUGGGUUCGGCCGCCACUUGAGUGAUGGUGCCUCAAUAAGUCUACAUGAGGAUCACCCAUGUAAGGACCGGGAAUUUUAUGG [theeternabot_exclusion_MS2_Trp_B_19]" cat=true
sequence_string="CUGCCAUGCAGAGAUACCAGUGAGCUCAGAACAUGAGGAUCACCCAUGUACGCCGCCGAUCACCCUUGGCAGCUCUGCAUGGCAG [%*#)(]" cat=false

Read the next record carefully.
Textbook exercise: given the entry ACUUCGCAUAGGAAAACUAUGUGAAGAAAUCGAGGACCGGUACGGCCGCCACUCGUCCUCAACAUGAGGAUCACCCAUGUAAUAA [Mat - Exclusion - Trytophan A - D5] , state whether its apparent KD of MS2 coat protein is greater than or equal to 20 nM.
true
